Attribution: patent EP0450097B1

# subjectOfTest: V₂ receptor (Rattus norvegicus)
# Construct: Using rat kidney plasma membrane preparations
# Sequence (Q00788 whole entry): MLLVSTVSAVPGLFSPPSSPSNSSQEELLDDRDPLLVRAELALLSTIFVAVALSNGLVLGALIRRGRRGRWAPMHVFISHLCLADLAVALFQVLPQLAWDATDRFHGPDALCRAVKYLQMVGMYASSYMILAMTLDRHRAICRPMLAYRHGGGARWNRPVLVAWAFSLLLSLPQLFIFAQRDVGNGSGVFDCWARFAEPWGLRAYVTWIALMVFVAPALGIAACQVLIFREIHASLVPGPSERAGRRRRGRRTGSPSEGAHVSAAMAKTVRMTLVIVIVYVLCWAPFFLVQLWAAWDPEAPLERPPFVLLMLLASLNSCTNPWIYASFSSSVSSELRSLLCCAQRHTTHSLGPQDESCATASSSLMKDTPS
# protocolSummary: V₂ receptor binding assay ([³H]-Arg-vasopressin, rat kidney plasma membrane preparations)
# conditionSummary: 4°C for 3 hours
Field: class. Source value: IC50. Ranges: category 1 = under 20 nM, category 2 = from 20 nM up to 100 nM, category 3 = 100 nM and over

COc1cccc(C(=O)Nc2ccc(C(=O)N3CCN(C)Cc4ccccc43)cc2)c1: category 3
Cc1ccccc1C(=O)Nc1ccc(C(=O)N2CCC(O)Cc3ccccc32)cc1 (centres unmarked): category 2
Cc1cccc(C(=O)Nc2ccc(C(=O)N3CCCCc4ccccc43)cc2)c1C: category 1

Enquiry: Bin? O=C(Nc1ccc(C(=O)N2CCCc3ccccc32)cc1)c1cccc(Cl)c1
Return: category 3

Enquiry: Also, O=C(Nc1ccc(C(=O)N2CCCCc3ccccc32)cc1)c1cccc(O)c1 please.
Return: category 3

Enquiry: Also, Cc1ccccc1C(=O)Nc1ccc(C(=O)N2CCCC(CN=[N+]=[N-])c3ccccc32)cc1 (centres unmarked) please.
Return: category 3

Enquiry: Also, Cc1ccccc1C(=O)Nc1ccc(C(=O)N2CCCC(OCC(=O)NCC(N)=O)c3ccccc32)cc1 (centres unmarked) please.
Return: category 1

Enquiry: Also, Cc1ccccc1C(=O)Nc1ccc(C(=O)N2CCCC(COS(C)(=O)=O)c3ccccc32)cc1 (centres unmarked) please.
Return: category 1

###

# subjectOfTest: V₂ receptor (Rattus norvegicus)
# Construct: Using rat kidney plasma membrane preparations; from tissue; host or cells: rat kidney plasma membranes
# protocolSummary: V₂ receptor binding assay ([³H]-Arg-vasopressin, rat kidney plasma membrane preparations)
# conditionSummary: 4°C for 3 hours
Flag rule - IC50 less than 100 nM flags y; the remaining entries get n.

COc1cccc(C(=O)Nc2ccc(C(=O)N3CCCCCc4ccccc43)cc2)c1: n

Enquiry: Just wondering, is IC50 of Cc1cccc(C)c1C(=O)Nc1ccc(C(=O)N2CCCCc3ccccc32)cc1 below 100 nM?
Return: y

Enquiry: Also, O=C(Nc1ccc(C(=O)N2CCCc3ccccc32)cc1)c1cccc2ccccc12 please.
Return: n

Enquiry: Also, O=C(Nc1ccc(C(=O)N2CC(CO)Cc3ccccc32)cc1)c1cc(Cl)cc(Cl)c1 (stereo not drawn) please.
Return: y

Enquiry: Also, CN(C)C1CCCN(C(=O)c2ccc(NC(=O)c3ccccc3C(C)(C)C)cc2Cl)c2ccccc21 (stereo not drawn) please.
Return: y

Enquiry: Also, Cc1ccccc1C(=O)Nc1ccc(C(=O)N2CCCC(OCCCCN(C)C)c3ccccc32)cc1 (stereo not drawn) please.
Return: y

Enquiry: Also, Cc1ccccc1C(=O)Nc1ccc(C(=O)N2CCC(C)C(O)c3ccccc32)cc1 (stereo not drawn) please.
Return: y

Enquiry: Also, CC(C)NCCCCOc1ccccc1C(=O)Nc1ccc(C(=O)N2CCCCc3ccccc32)cc1 please.
Return: n

###

# subjectOfTest: V₂ receptor (Rattus norvegicus)
# Construct: Using rat kidney plasma membrane preparations
# protocolSummary: V₂ receptor binding assay ([³H]-Arg-vasopressin, rat kidney plasma membrane preparations)
# conditionSummary: 4°C for 3 hours
recordedMetric: IC50
Write down the value, and be sure its unit follows.

Examples with answers:
COc1cc(C(=O)N2CCC(N(C)C)c3ccccc32)ccc1NC(=O)c1cccc(C)c1C (stereo not shown) [compound 144]: 20 nM
CNC1CCCN(C(=O)c2ccc(NC(=O)c3ccccc3C(F)(F)F)cc2Cl)c2ccccc21 (stereo not shown) [compound 198]: 40 nM
Cc1ccccc1C(=O)Nc1ccc(C(=O)N2CCCC(OCC(=O)NCc3ccncc3)c3ccccc32)cc1 (stereo not shown) [compound 290]: 21 nM
Cc1ccccc1C(=O)Nc1ccc(C(=O)N2CC(C)Cc3ccccc32)cc1 (stereo not shown) [compound 46]: 18 nM
CC1CCN(C(=O)c2ccc(NC(=O)c3cc(Cl)cc(Cl)c3)cc2)c2ccccc21 (stereo not shown) [compound 55]: 91 nM
Cc1ccccc1C(=O)Nc1ccc(C(=O)N2CCCC(OC(=O)N(C)C)c3ccccc32)cc1 (stereo not shown) [compound 187]: 29 nM

Look at each molecule and report its IC50.
1. Cc1ccccc1C(=O)Nc1ccc(C(=O)N2CCCN(C)c3ccccc32)cc1 [compound 90]
2. CCCNC1CCCN(C(=O)c2ccc(NC(=O)c3ccc(Cl)cc3Cl)cc2)c2ccccc21 (stereo not shown) [compound 169]

Return:
["14 nM", "71 nM"]

Look at each molecule and report its IC50.
1. O=C(Nc1ccc(C(=O)N2CCCC(NC3CC3)c3ccccc32)c(Cl)c1)c1ccccc1Cl (stereo not shown) [compound 200]
2. COc1cc(C(=O)N2CCCC(NC3CC3)c3cc(Cl)ccc32)ccc1NC(=O)c1ccccc1Cl (stereo not shown) [compound 322]
3. Cc1ccccc1C(=O)Nc1ccc(C(=O)N2CC=Cc3ccccc32)cc1 [compound 217]
4. CC(C)NCCCCOc1ccccc1C(=O)Nc1ccc(C(=O)N2CCCC(O)c3ccccc32)cc1 (stereo not shown) [compound 312]

Return:
1. 24 nM
2. 25 nM
3. 370 nM
4. 290 nM
